# System: SEM cells
# assay name: cell viability relative to DMSO control; higher = less cytotoxic
# run parameters: HPLM + 10% dialyzed FBS; 48 h; 0.00234 µM
Could you please mark y for values of cell viability below 90% and n for values at or above it?

INSERT INTO measurements (compound, target_of_assay, label) VALUES
  ('COc1ccc(CC2c3cc(OC)c(OC)cc3CC[N+]2(C)CCC(=O)OCCCCCOC(=O)CC[N+]2(C)CCc3cc(OC)c(OC)cc3C2Cc2ccc(OC)c(OC)c2)cc1OC (stereo unspecified)', 'SEM cells', 'y'),
  ('Nc1nc(Nc2ccc([S+](N)(=O)[O-])cc2)nn1C(=O)c1c(F)cccc1F', 'SEM cells', 'n'),
  ('O=[S+]([O-])(CCSSCC[S+](=O)([O-])[O][Na])[O][Na]', 'SEM cells', 'n'),
  ('CC(=O)OCC(=O)[C@@]12OC(C)(C)O[C@@H]1C[C@H]3[C@@H]4C[C@H](F)C/5=C/C(=O)/C=C\[C@]5(C)[C@@]4(F)[C@@H](O)C[C@]23C', 'SEM cells', 'y'),
  ('COc1ccc(C(=O)CC(=O)c2ccc(C(C)(C)C)cc2)cc1', 'SEM cells', 'y'),
  ('O=C(Nc1ccc([N+](=O)[O-])cc1Cl)c1cc(Cl)ccc1O', 'SEM cells', 'n'),
  ('CC(C)C(=O)Nc1ncc(-c2cc(C(F)F)nn2-c2c(Cl)cccc2Cl)s1', 'SEM cells', 'n'),
  ('C=CC(=O)Nc1cccc(Oc2nc(Nc3ccc(N4CCN(C)CC4)cc3OC)ncc2Cl)c1', 'SEM cells', 'y'),
  ('C[C@H](NC(=O)Cc1cc(F)cc(F)c1)C(=O)N[C@@H]1C(=O)N(C)c2ccccc2-c2ccccc21', 'SEM cells', 'n'),
  ('O=[N+]([O-])c1ccc(Nc2ccccc2-c2ccccc2)c2nonc12', 'SEM cells', 'y'),
  ('CN(C)/[N+]([O-])=N/Oc1cc(ON[N+](=O)N2CCN(C(=O)c3cc(Cc4n[nH]c(=O)c5ccccc45)ccc3F)CC2)c([N+](=O)[O-])cc1[N+](=O)[O-]', 'SEM cells', 'n'),
  ('O=C(O)[C@@H](c1ccc(OCc2ccc3ccccc3n2)cc1)C1CCCC1', 'SEM cells', 'n'),
  ('O=C(O)c1ccc(-c2c[nH]c3ncc(-c4ccccc4)cc23)cc1C1CCCC1', 'SEM cells', 'n'),
  ('NC(=O)c1ccc(-c2nc(-c3ccc4c(c3)OCO4)c(-c3ccccn3)[nH]2)cc1', 'SEM cells', 'n'),
  ('CN1\N=N/C2=C(N=C[N]2C1=O)C(N)=O', 'SEM cells', 'n'),
  ('COc1ccc2c(OCc3nnc4ccc(-c5ccccc5)nn34)ccnc2c1', 'SEM cells', 'n'),
  ('CC(Cc1ccc(O)c(O)c1)(NN)C(=O)O (stereo unspecified)', 'SEM cells', 'n'),
  ('CN(c1nccc(=O)[nH]1)C1CCN(c2nc3ccccc3n2Cc2ccc(F)cc2)CC1', 'SEM cells', 'n'),
  ('Cn1cc(-c2cnn3c(N)c(Br)c([C@@H]4CCCNC4)nc23)cn1', 'SEM cells', 'n'),
  ('COc1cccc(Nc2c(C(N)=O)cnc3c(C)cc([S+](=O)([O-])c4cccc(C(=O)N(C)C)c4)cc23)c1', 'SEM cells', 'n'),
  ('CCCOc1ccc2[nH]c(NC(=O)OC)nc2c1', 'SEM cells', 'n'),
  ('CCCc1nc2c(C)cc(-c3nc4ccccc4n3C)cc2n1Cc1ccc(-c2ccccc2C(=O)O)cc1', 'SEM cells', 'n'),
  ('CN1/C=C(\N=C(NC2=CC=C(C=C2)C(=O)N3CCOCC3)/C1=O)/C4=C(C)C(=CC=C4)NC(=O)C5=CC=C(C=C5)C(C)(C)C', 'SEM cells', 'n'),
  ('CNNCc1ccc(C(=O)NC(C)C)cc1', 'SEM cells', 'n'),
  ('FC1=CC=C(CN2\C=C/C=C(/C(=O)N[C@@H](COC3=CC4=C(NC(=O)N4)C=C3)C5=CC=CC=C5)C2=O)C=C1F', 'SEM cells', 'y'),
  ('CNC(=O)c1ccc(N2C(=S)N(c3ccc(C#N)c(C(F)(F)F)c3)C(=O)C2(C)C)cc1F', 'SEM cells', 'n'),
  ('C/C(=C\c1csc(C)n1)[C@@H]1C[C@@H]2O[C@@H]2CCC[C@H](C)[C@H](O)[C@@H](C)C(=O)C(C)(C)[C@@H](O)CC(=O)O1', 'SEM cells', 'y');

====

The compounds listed here are annotated with their cell viability.
# System: P12-Ichikawa
# assay name: cell viability relative to DMSO control; higher = less cytotoxic
# run parameters: HPLM + 10% dialyzed FBS; 48 h; 0.00234 µM
value type: cell viability (%)

INSERT INTO results (smiles_notation, value_type, measure_unit, reported) VALUES
  ('COc1ccc2c(OCc3nnc4ccc(-c5ccccc5)nn34)ccnc2c1', 'cell viability', '%', 116),
  ('CCCc1nc2c(C)cc(-c3nc4ccccc4n3C)cc2n1Cc1ccc(-c2ccccc2C(=O)O)cc1', 'cell viability', '%', 124),
  ('CN[C@H]1[C@H](O[C@@H]2[C@H](O[C@@H]3[C@@H](O)[C@@H](O)[C@@H](NC(=N)N)[C@@H](O)[C@H]3NC(=N)N)O[C@H](C)[C@@]2(O)C=O)O[C@@H](CO)[C@@H](O)[C@H]1O', 'cell viability', '%', 117),
  ('NC(=O)c1ccc(-c2nc(-c3ccc4c(c3)OCO4)c(-c3ccccn3)[nH]2)cc1', 'cell viability', '%', 124),
  ('Cn1cnc(-c2cc3nccc(Oc4ccc(NC(=S)NC(=O)Cc5ccccc5)cc4F)c3s2)c1', 'cell viability', '%', 85.6),
  ('Clc1ccccc1C(c1ccccc1)(c1ccccc1)n1cccn1', 'cell viability', '%', 134),
  ('O=C(O)[C@@H](c1ccc(OCc2ccc3ccccc3n2)cc1)C1CCCC1', 'cell viability', '%', 114),
  ('CCCCOc1ccc(CC(=O)NO)cc1', 'cell viability', '%', 108),
  ('COc1ccc(C(=O)CC(=O)c2ccc(C(C)(C)C)cc2)cc1', 'cell viability', '%', 112);

====

# System: SEM cells
# assay name: cell viability relative to DMSO control; higher = less cytotoxic
# run parameters: RPMI 5 mM glucose + 10% FBS; 48 h; 5.12 µM
value type: cell viability

INSERT INTO assay_data (molecule, target_of_assay, reported) VALUES
  ('Cn1c(=O)c2[nH]cnc2n(C)c1=O', 'SEM cells', '110%'),
  ('NC(=O)c1ccc(-c2nc(-c3ccc4c(c3)OCO4)c(-c3ccccn3)[nH]2)cc1', 'SEM cells', '102%'),
  ('O=C(Nc1ccc([N+](=O)[O-])cc1Cl)c1cc(Cl)ccc1O', 'SEM cells', '19.7%'),
  ('CNC(=O)c1cc(Oc2ccc(NC(=O)Nc3ccc(Cl)c(C(F)(F)F)c3)cc2)ccn1', 'SEM cells', '63.9%'),
  ('CN[C@H]1[C@H](O[C@@H]2[C@H](O[C@@H]3[C@@H](O)[C@@H](O)[C@@H](NC(=N)N)[C@@H](O)[C@H]3NC(=N)N)O[C@H](C)[C@@]2(O)C=O)O[C@@H](CO)[C@@H](O)[C@H]1O', 'SEM cells', '103%'),
  ('O=[S+]([O-])(O)c1ccc2cc(/N=N/c3cc([S+](=O)([O-])O)c4cccnc4c3O)ccc2c1', 'SEM cells', '103%'),
  ('CCC[C@@H](C=O)NC(=O)[C@H](CC(C)C)NC(=O)[C@H](CC(C)C)NC(=O)OCc1ccccc1', 'SEM cells', '8.05%'),
  ('C=CCc1cc(OC)c(O)c(C(=O)NCCO)c1', 'SEM cells', '99.2%'),
  ('CCOc1cc(/C=C2/C(=O)N(c3ccccc3)N=C2C)cc(Cl)c1OCC(=O)OC', 'SEM cells', '90.9%'),
  ('NC(=O)c1cnc(-c2ccc(C3(N)CCC3)cc2)c(-c2ccccc2)c1', 'SEM cells', '78%'),
  ('COc1nccc(-c2c(-c3ccc(F)cc3)ncn2C2CCC(O)CC2)n1 (stereo not drawn)', 'SEM cells', '63.8%'),
  ('O=C(C[C@@H]1C/C=C\CCC(=O)O[C@H](c2ccccc2)CNC1=O)NCc1ccc(Cl)cc1', 'SEM cells', '98.9%'),
  ('O=[S+]([O-])(/N=C/c1c(O)ccc2ccccc12)c1cccs1', 'SEM cells', '93.3%'),
  ('CC(C)(C)Cn1c(N)nc2ccc(-c3[nH]c(C(C)(C)C)nc3-c3ccc(F)cc3)nc21', 'SEM cells', '91.9%'),
  ('Cc1cccc(N(C)C(=S)Oc2ccc3ccccc3c2)c1', 'SEM cells', '107%'),
  ('CC1(C)Cc2c(sc(NC(=S)NC(=O)c3ccccc3)c2C(=O)O)CO1', 'SEM cells', '101%'),
  ('C=C[C@H]1CN2CCC1C[C@@H]2[C@@H](O)c1ccnc2ccccc12 (stereo partly drawn)', 'SEM cells', '73.5%'),
  ('CCCc1nc2c(C)cc(-c3nc4ccccc4n3C)cc2n1Cc1ccc(-c2ccccc2C(=O)O)cc1', 'SEM cells', '159%');
